species: Homo sapiens; test: Stabilization effect on human telomeric DNA assessed as differential melting temperature in the presence of double strand DNA by FRET assay
OBSERVED PROPERTY: ΔTm (°C)

Please review the entries below; each comes with its answer.
NCc1cc2oc1CNC(=O)C1=CC=C(CNC(=O)C3=CC=C(CNC2=O)O3)O1 :: 7
NCCC(=O)NCC1=C2CNC(=O)C3=CC=C(CNC(=O)c4cc(CNC(=O)CCN)c(o4)CNC(=O)C4=CC=C(CNC(=O)C(=C1)O2)O4)O3 :: 17

a. NCCC(=O)NCc1cc2oc1CNC(=O)C1=CC=C(CNC(=O)C3=CC=C(CNC2=O)O3)O1
b. NCC1=C2CNC(=O)C3=CC=C(CNC(=O)c4cc(CN)c(o4)CNC(=O)C4=CC=C(CNC(=O)C(=C1)O2)O4)O3
Between a and b , whose measured ΔTm reads higher? Response format: the label of the selected entry.
b
(b: 12 °C, a: 7 °C)
